Recorded values, source patent US12144808B2.

Experiment: oral bioavailability
Settings: in vivo
OUTCOME_MEASURE: bioavailability

// bioavailability lookup, key: CN1CCN2c3c(cccc31)[C@@H]1CN(CCCC(=O)c3ccc(F)cc3)CC[C@@H]12 [Compound of Formula I] ≤ 5%

----------
Assay: Example 3: pharmacokinetics of SC and IV dosing in monkeys
Type: in vivo
Conditions: cynomolgus monkey, IV, 0.5 mg/kg, plasma, read-out: Cmax, Parent Compound
OUTCOME_MEASURE: Cmax (ng/mL)
Answer with a number only, understood to be in ng/mL.

// Cmax lookup, key: CN1CCN2c3c(cccc31)[C@@H]1CN(CCCC(=O)c3ccc(F)cc3)CC[C@@H]12 [Compound of Formula I] 94

----------
Assay: Example 2: pharmacokinetics of oral dosing in dogs
Assay type: in vivo
Conditions: both sexes, beagle, dog, plasma, oral capsules, tosylate salt, 15 mg/kg
OUTCOME_MEASURE: Tmax (h)
Answer with a number only, understood to be in h.

// Tmax lookup, key: CN1CCN2c3c(cccc31)[C@@H]1CN(CCCC(=O)c3ccc(F)cc3)CC[C@@H]12 [Compound of Formula I] 1.63

----------
Test: Example 2: pharmacokinetics of oral dosing in dogs
Type: in vivo
Settings: both sexes, beagle, dog, plasma, oral capsules, tosylate salt, 10 mg/kg, 0-24 hours
OUTCOME_MEASURE: AUC

// AUC lookup, key: CN1CCN2c3c(cccc31)[C@@H]1CN(CCCC(=O)c3ccc(F)cc3)CC[C@@H]12 142 ng·h/mL

----------
Assay: Example 2: pharmacokinetics of oral dosing in dogs
Assay type: in vivo
Settings: both sexes, beagle, dog, plasma, oral capsules, tosylate salt, 2.5 mg/kg
OUTCOME_MEASURE: Cmax
Kindly report the value followed by its unit.

// Cmax lookup, key: CN1CCN2c3c(cccc31)[C@@H]1CN(CCCC(=O)c3ccc(F)cc3)CC[C@@H]12 [Compound of Formula I] 5.51 ng/mL

----------
Test: Example 3: pharmacokinetics of SC and IV dosing in monkeys
Format: in vivo
Conditions: Cynomolgus, cynomolgus monkey, plasma, subcutaneous, SC administration, 0.5 mg/kg, read-out: bioavailability (comparison of IV to SC pharmacokinetics)
Description: Six Cynomolgus monkeys are divided into two groups for IV and SC dosing with the Compound of Formula I. The animals are dosed in a fasting state. Blood samples are collected pre-dose, and at 5 minutes, 15 minutes, 1, 2, 4, 6, 8, 24, 36 and 48 hours post-dose. All blood samples are processed to plasma and later analyzed by liquid chromatography-tandem mass spectrometry. […] PK parameters are calculated using PK Solutions 2.0 software (Summit Research Services, Colorado, US).
OUTCOME_MEASURE: bioavailability

// bioavailability lookup, key: CN1CCN2c3c(cccc31)[C@@H]1CN(CCCC(=O)c3ccc(F)cc3)CC[C@@H]12 [Compound of Formula I] ~74%

----------
Assay: Example 2: pharmacokinetics of oral dosing in dogs
Format: in vivo
Details: both sexes, beagle, dog, plasma, oral capsules, tosylate salt, 5 mg/kg, 0-24 hours
OUTCOME_MEASURE: AUC (ng·h/mL)
Answer with a number only, understood to be in ng·h/mL.

// AUC lookup, key: CN1CCN2c3c(cccc31)[C@@H]1CN(CCCC(=O)c3ccc(F)cc3)CC[C@@H]12 [Compound of Formula I] 52.5

----------
Experiment: Example 1A: pharmacokinetics of subcutaneous (SC) and sublingual (SL) dosing in dogs
Type: in vivo
Settings: male, beagle, dog, SL, 1 mg/kg, tosylate salt, plasma
OUTCOME_MEASURE: Tmax (h)
Answer with a number only, understood to be in h.

[
  {
    "SMILES_NOTATION": "CN1CCN2c3c(cccc31)[C@@H]1CN(CCCC(=O)c3ccc(F)cc3)CC[C@@H]12",
    "Tmax / h": 1
  }
]

Now consider a different compound.
// Tmax lookup, key: [2H]C1([2H])CN2c3c(cccc3N1C)[C@@H]1CN(CCCC(=O)c3ccc(F)cc3)CC[C@@H]12 1

----------
Assay: Example 3: pharmacokinetics of SC and IV dosing in monkeys
Assay type: in vivo
Conditions: cynomolgus monkey, IV, 0.5 mg/kg, plasma, read-out: AUC, Parent Compound
OUTCOME_MEASURE: AUC (ng·h/mL)
Answer with a number only, understood to be in ng·h/mL.

// AUC lookup, key: CN1CCN2c3c(cccc31)[C@@H]1CN(CCCC(=O)c3ccc(F)cc3)CC[C@@H]12 297

----------
Experiment: Example 3: pharmacokinetics of SC and IV dosing in monkeys
Assay type: in vivo
Details: cynomolgus monkey, IV, 0.5 mg/kg, plasma, read-out: Tmax, Parent Compound
OUTCOME_MEASURE: Tmax (min)
Answer with a number only, understood to be in min.

// Tmax lookup, key: CN1CCN2c3c(cccc31)[C@@H]1CN(CCCC(=O)c3ccc(F)cc3)CC[C@@H]12 4.98

----------
Test: Example 1B: SC and SL pharmacokinetics in dogs with metabolite analysis
Format: in vivo
Settings: male, beagle, dog, SL, 1 mg/kg, plasma, 0-24 hours, analyte parent
List of AUC values.
Answer with a number only, understood to be in ng·h/mL.

[
  {
    "SMILES_NOTATION": "CN1CCN2c3c(cccc31)[C@@H]1CN(CCCC(=O)c3ccc(F)cc3)CC[C@@H]12",
    "AUC, ng·h/mL": 507
  }
]

Now consider a different molecule.
// AUC lookup, key: [2H]C1([2H])CN2c3c(cccc3N1C)[C@@H]1CN(CCCC(=O)c3ccc(F)cc3)CC[C@@H]12 1260

----------
Assay: Example 2: pharmacokinetics of oral dosing in dogs
Format: in vivo
Details: both sexes, beagle, dog, plasma, oral capsules, tosylate salt, 15 mg/kg, 0-24 hours
Protocol: For control, the dogs are administered empty capsules. For the Compound of Formula I, the dogs are administered normal-release oral capsules. Blood samples are obtained at 0.25 hours, 0.5 hours, 1 hour, 4 hours, 8 hour and 24 hours. […] Cmax, Tmax and area-under-the-curve (AUC, 0-24 hours) are calculated using Phoenix WinNonlin software.
OUTCOME_MEASURE: AUC (ng·h/mL)
Answer with a number only, understood to be in ng·h/mL.

// AUC lookup, key: CN1CCN2c3c(cccc31)[C@@H]1CN(CCCC(=O)c3ccc(F)cc3)CC[C@@H]12 248

----------
Assay: Example 3: pharmacokinetics of SC and IV dosing in monkeys
Format: in vivo
Conditions: Cynomolgus, cynomolgus monkey, SC, 0.5 mg/kg, plasma, read-out: AUC, Parent Compound
OUTCOME_MEASURE: AUC
Kindly report the value followed by its unit.

// AUC lookup, key: CN1CCN2c3c(cccc31)[C@@H]1CN(CCCC(=O)c3ccc(F)cc3)CC[C@@H]12 [Compound of Formula I] 220 ng·h/mL

----------
List of Tmax values.
Assay: Example 1A: pharmacokinetics of subcutaneous (SC) and sublingual (SL) dosing in dogs
Format: in vivo
Details: male, beagle, dog, SC, 1 mg/kg, tosylate salt, plasma
Answer with a number only, understood to be in h.

[
  {
    "SMILES_NOTATION": "CN1CCN2c3c(cccc31)[C@@H]1CN(CCCC(=O)c3ccc(F)cc3)CC[C@@H]12",
    "OUTCOME_MEASURE": "Tmax",
    "QUANTITY_UNIT": "h",
    "MEAS_VALUE": 1
  }
]

// Tmax lookup, key: [2H]C1([2H])CN2c3c(cccc3N1C)[C@@H]1CN(CCCC(=O)c3ccc(F)cc3)CC[C@@H]12 1

----------
Assay: Example 2: pharmacokinetics of oral dosing in dogs
Format: in vivo
Settings: both sexes, beagle, dog, plasma, oral capsules, tosylate salt, 15 mg/kg
OUTCOME_MEASURE: Cmax (ng/mL)
Answer with a number only, understood to be in ng/mL.

// Cmax lookup, key: CN1CCN2c3c(cccc31)[C@@H]1CN(CCCC(=O)c3ccc(F)cc3)CC[C@@H]12 44.5

----------
Test: Example 1B: SC and SL pharmacokinetics in dogs with metabolite analysis
Type: in vivo
Conditions: male, beagle, dog, SC, 1 mg/kg, plasma, 0-24 hours, analyte parent
OUTCOME_MEASURE: AUC (ng·h/mL)
Answer with a number only, understood to be in ng·h/mL.

[
  {
    "SMILES_NOTATION": "CN1CCN2c3c(cccc31)[C@@H]1CN(CCCC(=O)c3ccc(F)cc3)CC[C@@H]12",
    "AUC / ng·h/mL": 560
  }
]

Now consider a different molecule.
// AUC lookup, key: [2H]C1([2H])CN2c3c(cccc3N1C)[C@@H]1CN(CCCC(=O)c3ccc(F)cc3)CC[C@@H]12 785

----------
Test: Example 2: pharmacokinetics of oral dosing in dogs
Format: in vivo
Conditions: both sexes, beagle, dog, plasma, oral capsules, tosylate salt, 10 mg/kg
OUTCOME_MEASURE: Tmax (min)
Answer with a number only, understood to be in min.

// Tmax lookup, key: CN1CCN2c3c(cccc31)[C@@H]1CN(CCCC(=O)c3ccc(F)cc3)CC[C@@H]12 [Compound of Formula I] 48.8
